Examples of binders with documented Kd follow.
- system.name: NPM1 (UniProt P06748 1-294)
- Sequence (P06748 whole entry): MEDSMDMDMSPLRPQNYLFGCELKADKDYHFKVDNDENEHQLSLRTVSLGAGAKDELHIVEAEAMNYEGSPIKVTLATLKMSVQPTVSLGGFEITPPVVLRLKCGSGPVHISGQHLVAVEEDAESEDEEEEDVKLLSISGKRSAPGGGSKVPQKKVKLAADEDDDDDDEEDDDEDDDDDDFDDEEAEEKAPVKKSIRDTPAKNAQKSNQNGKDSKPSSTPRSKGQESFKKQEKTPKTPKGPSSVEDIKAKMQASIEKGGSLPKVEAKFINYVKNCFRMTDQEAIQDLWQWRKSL
- protocol.description: SPR
A number alone suffices; assume nM.

In: Input TTTTTTTTTTTTTTTTTTTTTTT (ssDNA) [Biot-Poly dT] , output reported Kd.
Out: 255

In: Input TAGGGTTAGGGTTAGGGTTAGGG (structured_DNA) [Biot-Nat] , output reported Kd.
Out: 147
